Assay: P. aeruginosa biofilm formation inhibitors, primary screen, PAO1 strain, BacTiter-Glo luminescence, LB-PBS (AID 1144)
Settings: 12 h, higher = more signal
Entries and their measured z-score follow.

Molecule: C[C@]12C(=O)N(CCCCCCO)[C@@H]3C(=O)N(c4ccc(Cl)cc4)CC=CC31O[C@@H]1/C=C\CCCOC(=O)C12 (stereo not given in full)
z-score: -1.5
//
Molecule: CCOC(=O)[C@H]1C/C=C/C[C@H](C(=O)OCC)C(=O)O[C@H]2[C@@H](OC)O[C@H](CO)[C@@H](OC(=O)Nc3ccc(OC)cc3)[C@@H]2OC1=O
z-score: 0.29
//
Molecule: C=C[C@@H](COC(C)=O)NS(=O)(=O)c1ccc(Br)cc1
z-score: -0.446
//
Molecule: CC(C)C(CO)N1C(=O)[C@]2(C)C3C(=O)OCCC/C=C\[C@H]3OC23C=CCN(c2ccc(Cl)cc2)C(=O)[C@@H]13 (stereo not given in full)
z-score: 1.25
//
Molecule: CC(C)(C)OC(=O)CC[C@]1(C(=O)O)N=C(c2ccc(OCCCO)cc2)O[C@H]1c1ccccc1
z-score: -0.278
//
Molecule: C=CC[C@@]1(C(=O)O)N=C(c2ccc(OCCCO)cc2)O[C@@H]1c1ccccc1
z-score: -0.385
//
Molecule: [N-]=[N+]=NCc1ccccc1C[C@@]1(C(=O)NCCN2CCOCC2)N=C(c2ccc(OCCCO)cc2)O[C@@H]1c1ccccc1N=[N+]=[N-]
z-score: -0.503
//
Molecule: O=C(O)[C@]1(Cc2ccccc2)N=C(c2ccc(OCCCO)cc2)O[C@@H]1c1ccccc1
z-score: 0.534
//
Molecule: COC(=O)[C@@]1(Cc2ccccc2)[C@H]2c3cc(C(=O)N4CCCC4)n(Cc4ccsc4Br)c3C[C@H]2CN1C(=O)c1ccccc1
z-score: 0.389
//
Molecule: CC(C)CCC[C@@H](C)[C@H]1CC[C@@]2(C)C3=C(CC[C@]12C)[C@@]1(C)CC[C@H](OC(=O)c2ccc(Br)cc2)C(C)(C)C1CC3 (stereo not given in full)
z-score: -0.784
//
Molecule: CC(C)(C)OC(=O)CC[C@@]1(C(=O)O)N=C(c2ccc(OCCCO)cc2)O[C@@H]1c1ccccc1CN=[N+]=[N-]
z-score: -0.21
//
Molecule: CCCCN1CC=CC23O[C@@H]4C=CCOC(=O)[C@@H]4[C@H]2C(=O)N(C(C)CO)[C@@H]3C1=O (stereo not given in full)
z-score: 1.27
//
Molecule: COC(=O)C(CC#Cc1ccc2c(c1)[C@]1(C(=O)N2)[C@H](C(=O)O)[C@H]2C(=O)O[C@H](c3ccccc3)[C@H](c3ccccc3)N2[C@@H]1c1ccccc1OCCO)C(=O)OC
z-score: -0.292
//
Molecule: CC[C@H]1C2=C3C(CC[C@H]4C(OCc5ccc(F)cc5C(F)(F)F)OC[C@](C)([C@@H]34)N(C(=O)OC(C)(C)C)C2)C2COC(=O)OCC21 (stereo not given in full)
z-score: 0.265
//
Molecule: CC(=O)NCCCC[C@@H]1NC(=O)[C@@H]2C[C@H](C(=O)O)[C@H](c3ccc(O)cc3)N2C1=O
z-score: -0.646

----------
Test: basal RPMI8226 viability, no added stimulus, profiling panel, cell-based, calcein-AM fluorescence, 48 h, PK04 Diversity Set (AID 1166);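 also: cells grown under basal conditions without added stimulus; test concentration not given here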
Conditions: RPMI8226 myeloma viability, higher = more signal
Entries and their measured z-score follow.

Molecule: O=C1NC(=O)C2C1C=CC(C(O)c1c(F)cccc1Cl)N2Nc1ccccn1 (configuration not stated)
z-score: -0.825
--
Molecule: C=C[C@@H](C)[C@H](OC(=O)Nc1ccc(SC)cc1)c1ccc(OCCO)cc1
z-score: 0.794
--
Molecule: CC(=O)NCCCC[C@@H]1NC(=O)[C@@H]2C[C@H](C(=O)O)[C@H](c3ccc(O)cc3)N2C1=O
z-score: -0.105
--
Molecule: COc1ccc([Si](C)(C)[C@@H]2[C@@H](CCO)O[C@]3(C(=O)N(Cc4cccc(N5C(=O)c6ccccc6Oc6ccccc65)c4)c4ccccc43)[C@H]2C)cc1
z-score: -4.32
--
Molecule: COCCOC(=O)N1C(=O)[C@@]2(c3cc(C#CC4(O)CCCCCC4)ccc31)[C@H](C(N)=O)[C@H]1C(=O)O[C@H](c3ccccc3)[C@H](c3ccccc3)N1[C@@H]2c1ccccc1OCCO
z-score: -4.59
--
Molecule: C[C@H]1C2=C3C(CC[C@H]4C(OCc5ccc(F)cc5C(F)(F)F)OC[C@](C)([C@@H]34)N(C(=O)OC(C)(C)C)C2)C(CO)C1CO (some centres not stated)
z-score: -4.68
--
Molecule: CC(C)(C)OC(=O)CC[C@]1(C(=O)O)N=C(c2ccc(OCCCO)cc2)O[C@H]1c1ccccc1
z-score: -0.135
